# assay protocol: Reversal of multidrug resistance in human 2780AD cells assessed as increase in vincristine accumulation relative to verapamil
# Type: functional, A2780 ADR
# Design: concentration or dose not given beside the values
reported metric: Activity (%)
Note: unit % is implicit; provide only the numeric part.

# input Which value of Activity has been reported for `C=C1[C@@H](OC(=O)c2ccccc2)CC[C@@]2(C)[C@@H](OC(C)=O)[C@H](OC(C)=O)[C@@]34[C@H](C)C(=O)C[C@@H]([C@@H](OC(C)=O)[C@@]132)C4(C)C` in the records?
# output 125

# input Which value of Activity has been reported for `C=C1[C@@H](OC(=O)/C=C/c2ccccc2)CC[C@@]2(C)[C@@H](OC(=O)c3ccccc3)[C@H](OC(=O)c3ccccc3)C3=C(C)C(=O)C[C@@H]([C@@H](OC(C)=O)[C@H]12)C3(C)C` in the records?
# output 28

# input Which value of Activity has been reported for `CC[Si](CC)(CC)O[C@H]1CC[C@@]2(C)[C@@H](OC(C)=O)[C@H](OC(C)=O)C3=C(C)C(=O)C[C@@H]([C@@H](OC(C)=O)[C@@H]2[C@@]12CO2)C3(C)C` in the records?
# output 101

# input Which value of Activity has been reported for `C=C1[C@@H](O)CC[C@@]2(C)[C@@H](OC(C)=O)[C@H](OC(C)=O)C3=C(C)[C@H](O)C[C@@H]([C@@H](OC(C)=O)[C@H]12)C3(C)C` in the records?
# output 28

# input Which value of Activity has been reported for `C=C1[C@@H](OC(=O)c2ccccc2)CC[C@@]2(C)[C@@H](OC(C)=O)[C@H](OC(C)=O)C3=C(C)C(=O)C[C@@H]([C@@H](OC(C)=O)[C@H]12)C3(C)C` in the records?
# output 87

# input Which value of Activity has been reported for `C=C1[C@@H](OC(=O)CCc2ccccc2)CC[C@@]2(C)[C@@H](OC(C)=O)[C@H](OC(C)=O)C3=C(C)C(=O)C[C@@H]([C@@H](OC(C)=O)[C@H]12)C3(C)C` in the records?
# output 227

# input Which value of Activity has been reported for `C=C1[C@@H](O[Si](CC)(CC)CC)CC[C@@]2(C)[C@@H](OC(C)=O)[C@H](OC(C)=O)C3=C(C)C(=O)C[C@@H]([C@@H](OC(C)=O)[C@H]12)C3(C)C` in the records?
# output 91

# input Which value of Activity has been reported for `C=C1[C@@H](O)CC[C@@]2(C)[C@@H](OC(C)=O)[C@H](OC(C)=O)C3=C(C)C(=O)C[C@@H]([C@@H](OC(=O)/C=C/c4ccccc4)[C@H]12)C3(C)C` in the records?
# output 98

# input Which value of Activity has been reported for `C=C1[C@@H](O)CC[C@@]2(C)[C@@H](OC(C)=O)[C@H](OC(C)=O)C3=C(C)[C@@H](OC(=O)/C=C/c4ccccc4)C[C@@H]([C@@H](OC(C)=O)[C@H]12)C3(C)C` in the records?
# output 95

# input Which value of Activity has been reported for `C=C1[C@@H](OC(=O)C[C@H](c2ccccc2)N(C)C)CC[C@]2(C)[C@@H]1C[C@@H]1C[C@H](OC(C)=O)C(C)=C([C@@H](OC(C)=O)[C@@H]2OC(C)=O)C1(C)C` in the records?
# output 119

# input Which value of Activity has been reported for `C=C1[C@@H](OC(=O)/C=C/c2ccccc2)CC[C@@]2(C)[C@H]3OC(C)(C)O[C@@H]3C3=C(C)C(=O)C[C@@H]([C@@H](OC(=O)/C=C/c4ccccc4)[C@H]12)C3(C)C` in the records?
# output 28

# input Which value of Activity has been reported for `C=C1[C@@H](OC(=O)/C=C/c2ccccc2)C[C@H](OC(C)=O)[C@]2(C)[C@@H]1C[C@]1(C(C)(C)O)C[C@H](OC(C)=O)C(C)=C1[C@@H](OC(C)=O)[C@@H]2OC(C)=O` in the records?
# output 114

# input Which value of Activity has been reported for `C=C1[C@@H](OC(=O)/C=C/c2ccccc2)CC[C@@]2(C)[C@@H](OC(=O)/C=C/c3ccccc3)[C@H](OC(=O)/C=C/c3ccccc3)C3=C(C)C(=O)C[C@@H]([C@@H](OC(C)=O)[C@H]12)C3(C)C` in the records?
# output 28

====

# assay protocol: Reversal of multidrug resistance in human 2780AD cells assessed as increase in vincristine accumulation relative to verapamil
# Format: functional, A2780 ADR
# Parameters: concentration or dose not given beside the values
Activity values for the compounds below.
Note: unit % is implicit; provide only the numeric part.

Would you please look over these solved cases?
CC(=O)OC/C1=C\[C@H](OC(C)=O)[C@@H]2C[C@H](OC(C)=O)C(C)=C([C@@H](O)/C(OC(C)=O)=C(\C)[C@@H](OC(C)=O)C[C@@H]1OC(=O)/C=C/c1ccccc1)C2(C)C [TAXUSPINE X] = 105
CC(=O)O[C@@H]1[C@@H]2CC(=O)C(C)=C([C@@H](OC(C)=O)[C@H](OC(C)=O)[C@]3(C)CC[C@H](O)[C@@]4(CO4)[C@@H]13)C2(C)C = 28

Now for the compound whose Activity we want.
# input Which value of Activity has been reported for `C=C1[C@@H](OC(=O)/C=C/c2ccccc2)CC[C@@]2(C)[C@@H](OC(C)=O)[C@H](OC(C)=O)C3=C(C)[C@@H](OC(=O)/C=C/c4ccccc4)C[C@@H]([C@@H](OC(C)=O)[C@H]12)C3(C)C` in the records?
# output 28

====

# assay protocol: Reversal of multidrug resistance in human 2780AD cells assessed as increase in vincristine accumulation relative to verapamil
# Type: functional, A2780 ADR
# Parameters: concentration or dose not given beside the values
Activity values for the compounds below.
Note: unit % is implicit; provide only the numeric part.

C=C1[C@@H](OC(=O)/C=C/c2ccccc2)CC[C@@]2(C)[C@H]3OC(C)(C)O[C@@H]3C3=C(C)C(=O)C[C@@H]([C@@H](OC(=O)c4ccccc4)[C@H]12)C3(C)C = 28
C=C1[C@@H](OC(=O)C[C@H](c2ccccc2)N(C)C)C[C@H](OC(C)=O)[C@]2(C)[C@@H]1C[C@@H]1C[C@H](OC(C)=O)C(C)=C([C@@H](OC(C)=O)[C@@H]2OC(C)=O)C1(C)C = 114
C=C1[C@@H](OC(=O)c2ccccc2)CC[C@@]2(C)[C@@H](OC(C)=O)[C@H](OC(C)=O)C3=C(C)[C@@H](O)C[C@@H]([C@@H](OC(C)=O)[C@H]12)C3(C)C = 88
C=C1[C@@H](OC(=O)/C=C/c2ccccc2)CC[C@@]2(C)[C@@H](OC(=O)/C=C/c3ccccc3)[C@H](OC(=O)/C=C/c3ccccc3)C3=C(C)C(=O)C[C@@H]([C@@H](OC(=O)/C=C/c4ccccc4)[C@H]12)C3(C)C = 28

# input Which value of Activity has been reported for `C=C1[C@@H](OC(=O)C[C@H](c2ccccc2)N(C)C)CC[C@@]2(C)[C@@H](OC(C)=O)[C@H](OC(C)=O)C3=C(C)C(=O)C[C@@H]([C@@H](OC(C)=O)[C@H]12)C3(C)C` in the records?
# output 95

# input Which value of Activity has been reported for `CC(=O)O[C@@H]1[C@@H]2CC(=O)C(C)=C([C@@H](OC(C)=O)[C@H](OC(C)=O)[C@]3(C)CC[C@H](OC(=O)/C=C/c4ccccc4)[C@@]4(CO4)[C@@H]13)C2(C)C` in the records?
# output 139

# input Which value of Activity has been reported for `C=C1[C@@H](OC(=O)/C=C/c2ccccc2)CC[C@@]2(C)[C@@H](OC(C)=O)[C@H](OC(C)=O)[C@@]34[C@H](C)C(=O)C[C@@H]([C@@H](OC(C)=O)[C@@]132)C4(C)C` in the records?
# output 104

# input Which value of Activity has been reported for `CC[Si](CC)(CC)O[C@H]1CC[C@@]2(C)[C@@H](OC(C)=O)[C@H](OC(C)=O)C3=C(C)C(=O)C[C@@H]([C@@H](OC(C)=O)[C@@H]2[C@]12CO2)C3(C)C` in the records?
# output 102

# input Which value of Activity has been reported for `C=C1[C@@H](OC(=O)/C=C/c2ccccc2)C[C@H](OC(C)=O)[C@]2(C)[C@@H]1C[C@@H]1C[C@H](O)C(C)=C([C@@H](OC(C)=O)[C@@H]2OC(C)=O)C1(C)C` in the records?
# output 106

# input Which value of Activity has been reported for `C=C1[C@@H](OC(=O)/C=C/c2ccccc2)C[C@H](OC(C)=O)[C@]2(C)[C@@H]1C[C@@H]1C[C@H](OC(C)=O)C(C)=C([C@@H](OC(C)=O)[C@@H]2OC(C)=O)C1(C)C` in the records?
# output 108
